All values here come from ChEMBL document CHEMBL2346514.

Recorded MIC by entry
- System: Escherichia coli
- Assay name: Antibacterial activity against Escherichia coli ATCC 8099 after 24 hrs by NCCLS method
- Type: functional
- Condition: ATCC 8099, 24 h

Smiles text: CC(=O)OC[C@H]1O[C@@H](Sc2nnc(-c3ccccc3)n2/N=C/c2cc(Br)ccc2O)[C@H](OC(C)=O)[C@@H](OC(C)=O)[C@@H]1OC(C)=O
Uom: µg/mL
MIC: 128
//
Smiles text: CC(=O)OC[C@H]1O[C@@H](Sc2nnc(-c3ccccc3O)n2/N=C/c2ccccc2Cl)[C@H](OC(C)=O)[C@@H](OC(C)=O)[C@@H]1OC(C)=O
Uom: µg/mL
MIC: 128
//
Smiles text: CC(=O)OC[C@H]1O[C@@H](Sc2nnc(-c3ccccc3)n2/N=C/c2ccccc2)[C@H](OC(C)=O)[C@@H](OC(C)=O)[C@@H]1OC(C)=O
Uom: µg/mL
MIC: 128
//
Smiles text: Oc1cc(Cl)ccc1Oc1ccc(Cl)cc1Cl
Uom: µg/mL
MIC: 2
//
Smiles text: CC(=O)OC[C@H]1O[C@@H](Sc2nnc(-c3ccccc3O)n2/N=C/c2ccccc2O)[C@H](OC(C)=O)[C@@H](OC(C)=O)[C@@H]1OC(C)=O
Uom: µg/mL
MIC: 64
//
Smiles text: CC(=O)OC[C@H]1O[C@@H](Sc2nnc(-c3ccccc3)n2/N=C/c2cc(Cl)ccc2O)[C@H](OC(C)=O)[C@@H](OC(C)=O)[C@@H]1OC(C)=O
Uom: µg/mL
MIC: 128
//
Smiles text: CC(=O)OC[C@H]1O[C@@H](Sc2nnc(-c3ccccc3O)n2/N=C/c2cc(Br)ccc2O)[C@H](OC(C)=O)[C@@H](OC(C)=O)[C@@H]1OC(C)=O
Uom: µg/mL
MIC: 128
//
Smiles text: CC(=O)OC[C@H]1O[C@@H](Sc2nnc(-c3ccccc3)n2/N=C/c2ccccc2Cl)[C@H](OC(C)=O)[C@@H](OC(C)=O)[C@@H]1OC(C)=O
Uom: µg/mL
MIC: 128
//
Smiles text: CC(=O)OC[C@H]1O[C@@H](Sc2nnc(-c3ccccc3O)n2/N=C/c2cc(Br)cc(Br)c2O)[C@H](OC(C)=O)[C@@H](OC(C)=O)[C@@H]1OC(C)=O
Uom: µg/mL
MIC: 16
//
Smiles text: CC(=O)OC[C@H]1O[C@@H](Sc2nnc(-c3ccccc3O)n2/N=C/c2ccccc2)[C@H](OC(C)=O)[C@@H](OC(C)=O)[C@@H]1OC(C)=O
Uom: µg/mL
MIC: 128
//
Smiles text: OC(Cn1cncn1)(Cn1cncn1)c1ccc(F)cc1F
Uom: µg/mL
MIC: 128
//
Smiles text: CC(=O)OC[C@H]1O[C@@H](Sc2nnc(-c3ccccc3O)n2/N=C/c2cc(Cl)ccc2O)[C@H](OC(C)=O)[C@@H](OC(C)=O)[C@@H]1OC(C)=O
Uom: µg/mL
MIC: 128
//
Smiles text: CC(=O)OC[C@H]1O[C@@H](Sc2nnc(-c3ccccc3)n2/N=C/c2cc(Br)cc(Br)c2O)[C@H](OC(C)=O)[C@@H](OC(C)=O)[C@@H]1OC(C)=O
Uom: µg/mL
MIC: 16

---

- System: Staphylococcus aureus
- Assay name: Antibacterial activity against Staphylococcus aureus ATCC 6538 after 24 hrs by NCCLS method
- Assay type: functional
- Condition: ATCC 6538, 24 h
Parameter: MBC (µg/mL)

Molecule: CC(=O)OC[C@H]1O[C@@H](Sc2nnc(-c3ccccc3O)n2/N=C/c2ccccc2)[C@H](OC(C)=O)[C@@H](OC(C)=O)[C@@H]1OC(C)=O
Observed: 256

Molecule: OC(Cn1cncn1)(Cn1cncn1)c1ccc(F)cc1F [FLUCONAZOLE]
Observed: 32

Molecule: CC(=O)OC[C@H]1O[C@@H](Sc2nnc(-c3ccccc3O)n2/N=C/c2cc(Br)ccc2O)[C@H](OC(C)=O)[C@@H](OC(C)=O)[C@@H]1OC(C)=O
Observed: 128

Molecule: CC(=O)OC[C@H]1O[C@@H](Sc2nnc(-c3ccccc3O)n2/N=C/c2ccccc2O)[C@H](OC(C)=O)[C@@H](OC(C)=O)[C@@H]1OC(C)=O
Observed: 128

Molecule: CC(=O)OC[C@H]1O[C@@H](Sc2nnc(-c3ccccc3O)n2/N=C/c2cc(Br)cc(Br)c2O)[C@H](OC(C)=O)[C@@H](OC(C)=O)[C@@H]1OC(C)=O
Observed: 32

Molecule: Oc1cc(Cl)ccc1Oc1ccc(Cl)cc1Cl [TRICLOSAN]
Observed: 4

Molecule: CC(=O)OC[C@H]1O[C@@H](Sc2nnc(-c3ccccc3)n2/N=C/c2cc(Br)ccc2O)[C@H](OC(C)=O)[C@@H](OC(C)=O)[C@@H]1OC(C)=O
Observed: 32

Molecule: CC(=O)OC[C@H]1O[C@@H](Sc2nnc(-c3ccccc3)n2/N=C/c2ccccc2)[C@H](OC(C)=O)[C@@H](OC(C)=O)[C@@H]1OC(C)=O
Observed: 64

Molecule: CC(=O)OC[C@H]1O[C@@H](Sc2nnc(-c3ccccc3O)n2/N=C/c2ccccc2Cl)[C@H](OC(C)=O)[C@@H](OC(C)=O)[C@@H]1OC(C)=O
Observed: 128

Molecule: CC(=O)OC[C@H]1O[C@@H](Sc2nnc(-c3ccccc3)n2/N=C/c2cc(Br)cc(Br)c2O)[C@H](OC(C)=O)[C@@H](OC(C)=O)[C@@H]1OC(C)=O
Observed: 32
